- target: T1, Cynomolgus Monkey VSIG4-L-His (cynomolgus monkey)
- T1 construct: ECD with His tag; also called cyVSIG4-L; cyno VSIG4-L-His
- T1 chain: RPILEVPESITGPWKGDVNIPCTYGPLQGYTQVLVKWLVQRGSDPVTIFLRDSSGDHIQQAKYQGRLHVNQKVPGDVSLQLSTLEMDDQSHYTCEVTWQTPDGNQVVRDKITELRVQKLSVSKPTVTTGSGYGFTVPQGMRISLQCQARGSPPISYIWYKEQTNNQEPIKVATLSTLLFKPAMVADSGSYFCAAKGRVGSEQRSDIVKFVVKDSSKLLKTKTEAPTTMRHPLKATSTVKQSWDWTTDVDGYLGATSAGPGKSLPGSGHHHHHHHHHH
- assay: BLI, IgG on AHC sensor, antigen 100 nM
Measured KD relative to parental chimera by item
Quick note: give the figure in fold, leave out the unit.

Here's what some known entries look like.
INSERT INTO results (binder, number) VALUES
  ('h13H11.H humanized IgG4 (S228P) kappa (antibody, V domains shown) VH: QIQLVQSGSELKKPGASVKVSCKASGYTFENFGMNWVRQAPGQGLEWMGWINTYTGEATYADDFKGRFVFSLDTSVSTAYLQISSLKAEDTAVYYCARDGGFRHFDVWGQGTTVTVSS VL: DTQVTQSPSSLSASVGDRVTITCQTSTDISNYMNWYQQKPGKAPKLLISEGNTLRPGVPSRFSSSGSGTDFTFTISSLQPEDIATYYCLQSDNLPLTFGGGTKLEIKR', 0.9),
  ('14C05 mouse/human chimeric IgG4 (S228P) kappa (antibody, V domains shown) VH: EVMLVESGPELKKPGETVKISCKASGYTFTNYGMNWVKQAPGKGLKWMGSINTYTGEATYADDFKGRFAFSLETSANTAYLQIDNLKNEDTATYFCARGDYYGRGTWFAYWGQGTLVTVSA VL: ETTVTQSHKFMSTSVGDRVSITCKASQDVSTAVAWYQQKPGQSPKLLIYSASYRYPGVPDRFTGSGSGTDFTFTISSVQAEDLAVYYCQQDYSSPWTFGGGTKLEIKR', 1);

Now let's try a different one.
query: Which KD relative to parental chimera is listed for h13H11.E humanized IgG4 (S228P) kappa (antibody, V domains shown) VH: QIQLVQSGAEVKKPGASVKVSCKASGYTFENFGMNWVRQAPGQRLEWMGWINTYTGEATYADKFQGRVTITLDTSASTAYMELSSLRSEDTAVYYCARDGGFRHFDVWGQGTTVTVSS VL: DTQVTQSPSSLSASVGDRVTITCQTSTDISNYMNWYQQKPGKAPKLLISEGNTLRPGVPSRFSSSGSGTDFTFTISSLQPEDIATYYCLQSDNLPLTFGGGTKLEIKR ?
result: 1.1
